assaySystem: Growth hormone secretagogue receptor type 1 (Homo sapiens, UniProt Q92847)
Sequence (Q92847 whole entry): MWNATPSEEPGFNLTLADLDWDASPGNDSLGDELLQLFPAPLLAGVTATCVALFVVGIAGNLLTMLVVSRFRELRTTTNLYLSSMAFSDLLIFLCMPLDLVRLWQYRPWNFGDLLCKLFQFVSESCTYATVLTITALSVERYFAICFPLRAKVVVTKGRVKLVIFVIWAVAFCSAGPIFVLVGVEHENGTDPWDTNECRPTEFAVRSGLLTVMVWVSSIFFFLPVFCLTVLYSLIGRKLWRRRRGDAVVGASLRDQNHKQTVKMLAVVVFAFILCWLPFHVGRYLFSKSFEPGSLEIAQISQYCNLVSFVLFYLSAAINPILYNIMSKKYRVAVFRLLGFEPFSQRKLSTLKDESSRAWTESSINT
assaySummary: Inhibition of human GHS-R1a
assayMetric: IC50 (nM)
Report as a plain number; the unit nM is understood.

Example entries begin here.
smilesEntry: CCCCCCNC(=O)Nc1ccc(S(=O)(=O)Nc2ccc(CC(C)(C)NCC)cc2)cc1
assaySystem: Growth hormone secretagogue receptor type 1 (Homo sapiens, UniProt Q92847)
unitAbbreviation: nM
obsValue: 30
//
smilesEntry: CC(C)(N)Cc1ccc(NS(=O)(=O)c2ccc(NC(=O)Nc3ccccc3)cc2)cc1
assaySystem: Growth hormone secretagogue receptor type 1 (Homo sapiens, UniProt Q92847)
unitAbbreviation: nM
obsValue: 263
//
smilesEntry: CCNC(=O)Nc1ccc(S(=O)(=O)Nc2ccc(CC(C)(C)N)cc2)cc1
assaySystem: Growth hormone secretagogue receptor type 1 (Homo sapiens, UniProt Q92847)
unitAbbreviation: nM
obsValue: 5620

If you can, please state the reported IC50 value of "CCCCc1ccc(NC(=O)Nc2ccc(S(=O)(=O)Nc3ccc(CC(C)(C)N)cc3)cc2)cc1" .
28

If you can, please state the reported IC50 value of "CCCCCCNC(=O)Nc1ccc(S(=O)(=O)Nc2cccc(CCN)c2)cc1" .
625

* * *

assaySystem: Growth hormone secretagogue receptor type 1 (Homo sapiens, UniProt Q92847)
assaySummary: Agonist activity at human GHS-R1a assessed as maximum activation at 10 uM relative to ghrelin by aequorin assay
Type: functional
assayMetric: Activity (%)
Report as a plain number; the unit % is understood.

smilesEntry: CCCCCCNC(=O)Nc1ccc(S(=O)(=O)Nc2ccc(CC(C)(C)NCC(F)(F)F)cc2)cc1
assayMetric: Activity
obsValue: 1
//
smilesEntry: CCCNC(=O)Nc1ccc(S(=O)(=O)Nc2ccc(CC(C)(C)N)cc2)cc1
assayMetric: Activity
obsValue: 1
//
smilesEntry: CCNC(=O)Nc1ccc(S(=O)(=O)Nc2ccc(CC(C)(C)N)cc2)cc1
assayMetric: Activity
obsValue: 4
//
smilesEntry: CCCCc1ccc(NC(=O)Nc2ccc(S(=O)(=O)Nc3ccc(CC(C)(C)N)cc3)cc2)cc1
assayMetric: Activity
obsValue: 1
//
smilesEntry: CCCCNC(=O)Nc1ccc(S(=O)(=O)Nc2ccc(CC(C)(C)N)cc2)cc1
assayMetric: Activity
obsValue: 1

If you can, please state the reported Activity value of "CCCCCCNC(=O)Nc1ccc(S(=O)(=O)Nc2ccc(CCCN)cc2)cc1" .
1

If you can, please state the reported Activity value of "Cc1ccc(NC(=O)Nc2ccc(S(=O)(=O)Nc3ccc(CC(C)(C)N)cc3)cc2)cc1" .
3

If you can, please state the reported Activity value of "CCCCCCNC(=O)Nc1ccc(S(=O)(=O)Nc2cccc(CCCN)c2)cc1" .
51

* * *

assaySystem: Growth hormone secretagogue receptor type 1 (Homo sapiens, UniProt Q92847)
assaySummary: Inhibition of human GHS-R1a
# binning rule on IC50: class 1 = under 0.08 µM, class 2 = from 0.08 µM up to 0.4 µM, class 3 = 0.4 µM and over

Here are 3 compounds together with their reported answers.
smilesEntry: CC(C)(N)Cc1ccc(NS(=O)(=O)c2ccc(NC(=O)NCc3cccc4ccccc34)cc2)cc1
labelValue: class 1
//
smilesEntry: Cc1ccccc1NC(=O)Nc1ccc(S(=O)(=O)Nc2ccc(CC(C)(C)N)cc2)cc1
labelValue: class 2
//
smilesEntry: CC(C)NC(=O)Nc1ccc(S(=O)(=O)Nc2ccc(CC(C)(C)N)cc2)cc1
labelValue: class 3

Then this compound:
Which class is correct for the following compound? "CCCCCCNC(=O)Nc1ccc(S(=O)(=O)Nc2ccc(CCCN)cc2)cc1"
class 2

Data origin: ChEMBL document CHEMBL1154292
